Entries and their EC50
targetOfAssay: human TPOR (Homo sapiens, UniProt P40238)
Sequence (P40238 26-635): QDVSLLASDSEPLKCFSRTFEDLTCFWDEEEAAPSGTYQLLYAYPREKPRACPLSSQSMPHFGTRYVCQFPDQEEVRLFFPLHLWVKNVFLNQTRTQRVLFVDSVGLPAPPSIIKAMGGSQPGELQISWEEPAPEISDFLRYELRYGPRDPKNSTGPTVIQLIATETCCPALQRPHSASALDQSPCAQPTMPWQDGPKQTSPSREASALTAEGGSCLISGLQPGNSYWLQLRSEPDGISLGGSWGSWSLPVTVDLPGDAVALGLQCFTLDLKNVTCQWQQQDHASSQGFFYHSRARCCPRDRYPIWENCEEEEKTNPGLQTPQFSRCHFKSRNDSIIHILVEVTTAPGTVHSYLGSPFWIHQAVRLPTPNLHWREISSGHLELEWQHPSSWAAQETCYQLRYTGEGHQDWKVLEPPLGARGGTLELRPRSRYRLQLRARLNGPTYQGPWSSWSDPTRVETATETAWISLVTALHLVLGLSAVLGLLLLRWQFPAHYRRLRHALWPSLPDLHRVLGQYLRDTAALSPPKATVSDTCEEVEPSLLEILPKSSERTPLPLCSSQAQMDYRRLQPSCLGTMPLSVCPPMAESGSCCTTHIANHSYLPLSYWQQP
assaySummary: Proliferation effect on BAF3-TPOR cell (CCK-8)
condition: rate relative to rhTPO positive control

compound	targetOfAssay	EC50 / nM
CC1=NN(c2ccc3c(c2)C(C)(C)CC3)C(=O)/C1=N\Nc1cccc(-c2ccc(C(=O)O)o2)c1O [Example 5]	human TPOR (Homo sapiens, UniProt P40238)	19
CC1=NN(c2ccc3c(c2)CCCC3)C(=O)/C1=N\Nc1cccc(-c2ccc(C(=O)O)o2)c1O [Example 8]	human TPOR (Homo sapiens, UniProt P40238)	4.4
CC1=NN(c2ccc3c(c2)CCCC3)C(=O)/C1=N\Nc1cccc(-c2ccc(C(=O)[O-])o2)c1[O-].[Na+].[Na+] [Example 14, disodium salt]	human TPOR (Homo sapiens, UniProt P40238)	19
CC1=NN(c2ccc3c(c2)CCC3)C(=O)/C1=N\Nc1cccc(-c2cccc(C(=O)O)c2)c1O.NCCO.NCCO	human TPOR (Homo sapiens, UniProt P40238)	150
CC1=NN(c2ccc3c(c2)CCC3)C(=O)/C1=N\Nc1cccc(-c2ccc(C(=O)O)o2)c1O [Example 16a]	human TPOR (Homo sapiens, UniProt P40238)	100

----------
Entries annotated with measured Plasma Conc. Cmax
assaySummary: Pharmacokinetics assay in rats
Assay type: in vivo, SD rats
condition: SD rats, intragastric, 50 mg/Kg (as free acid); 50 mg/kg
reportedMetric: Plasma Conc. Cmax (ng/mL)

compound	reportedMetric	unitsText	result
CC1=NN(c2ccc3c(c2)CCC3)C(=O)/C1=N\Nc1cccc(-c2cccc(C(=O)O)c2)c1O [Example 1j]	Plasma Conc. Cmax	ng/mL	29050
CC1=NN(c2ccc3c(c2)CCCC3)C(=O)/C1=N\Nc1cccc(-c2ccc(C(=O)O)o2)c1O [Example 9]	Plasma Conc. Cmax	ng/mL	21200
CC1=NN(c2ccc3c(c2)CCC3)C(=O)/C1=N\Nc1cccc(-c2ccc(C(=O)O)o2)c1O [Example 18]	Plasma Conc. Cmax	ng/mL	23300
CC1=NN(c2ccc3c(c2)CCCC3)C(=O)/C1=N\Nc1cccc(-c2ccc(C(=O)O)o2)c1O [Example 23]	Plasma Conc. Cmax	ng/mL	17200
